Source listed as PubChem BioAssay.

- ASSAY_METHOD_TEXT: LFS_MB_P medulloblastoma growth inhibition, cell-based, chromothripsis tumors, cisplatin or BGB combos (AID 1671449);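 further: cells exposed for 96 hours; 0% = vehicle DMSO and 100% = killing by high DMSO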
- TEST_CONTEXT: LFS_MB_P medulloblastoma cells, measured here: combination with cisplatin, at 0.5 µM, stronger effect = higher value
Everything with inhibition lower than 10% is Criterion not met; everything else, including exactly 10%, is Criterion met.

{"columns": ["COMPOUND", "CAT"],
 "data": [
  ["CCn1nc(C(=O)O)c(=O)c2cc3c(cc21)OCO3", "Criterion not met"],
  ["O=c1[nH]c(=O)n([C@H]2C[C@H](O)[C@@H](CO)O2)cc1Br", "Criterion met"],
  ["O=C(CCCCCCC(=O)Nc1ccccc1)NO", "Criterion met"],
  ["CN1C[C@@H]2C[C@H]1CN2c1cc2c(cc1F)c(=O)c(C(=O)O)cn2C1CC1", "Criterion not met"],
  ["COc1c2ccoc2cc2oc(=O)ccc12", "Criterion not met"],
  ["CC1(C(=O)O)CCC2(C)CCC3(C)C(=CC(=O)C4C5(C)CCC(OC(=O)CCC(=O)O)C(C)(C)C5CCC43C)C2C1 (stereo unspecified)", "Criterion not met"],
  ["CN(N=O)C(=O)NC1C(O)OC(CO)C(O)C1O (stereo unspecified)", "Criterion met"],
  ["Nc1ccc2cc3ccc(N)cc3nc2c1", "Criterion not met"]
]}

Determine whether measured inhibition meets or exceeds 10% for CNC1CCCN(c2c(F)cc3c(=O)c(C(=O)O)cn(C4CC4)c3c2OC)C1 (stereo unspecified)
Criterion not met

Quick check: does `O=c1[nH]c(=O)n([C@H]2C[C@H](O)[C@@H](CO)O2)cc1C(F)(F)F` have inhibition greater than or equal to 10%?
Criterion met

API: above_or_equal(metric=inhibition, cutoff=10%) for item `Cc1ccc2nc(N)[nH]c(=O)c2c1Sc1ccncc1`
Criterion met

====

- ASSAY_METHOD_TEXT: ovarian cancer cell viability with rucaparib, profiling panel, oncology-focused library, rucaparib conditional (AID 1508598)
- TEST_CONTEXT: patient-derived ovarian cancer cells, CellTiter-Glo viability, 144 h; at 0.00488 µM; OCI-P5x cells; with rucaparib 20 µM; stronger effect = lower value; 100% = cells with rucaparib alone
OUTCOME_MEASURE: viability (%)
Kindly provide the numeric value in % only, without the unit symbol.

A selection of reference data follows.
{"columns": ["COMPOUND", "DISPLAY_UNIT", "viability"],
 "data": [
  ["Nc1ncn([C@H]2C[C@H](O)[C@@H](CO)O2)c(=O)n1", "%", 99.8],
  ["CN(C)c1nc(N(C)C)nc(N(C)C)n1", "%", 101],
  ["CN1CC[C@H](c2c(O)cc(O)c3c(=O)cc(-c4ccccc4Cl)oc23)[C@H](O)C1", "%", 97.7],
  ["CC(C)n1c(/C=C/[C@@H](O)C[C@@H](O)CC(=O)O)c(-c2ccc(F)cc2)c2ccccc21", "%", 82.4],
  ["COc1cc2ncnc(Nc3ccc(F)c(Cl)c3)c2cc1OCCCN1CCOCC1", "%", 95.6]
]}

For the next question, use this compound.
// query viability value for entry `O=C(CCc1ccc(O)cc1)c1c(O)cc(O)cc1O`
103

====

Let's look at some compounds and their measured viability decrease (inhibition).
- ASSAY_METHOD_TEXT: CellTiter-Glo luminescent readout of SW480 viability loss, NPC library primary (AID 1117343)
- TEST_CONTEXT: CellTiter-Glo luminescence; at 20 µM (top of the series) unless noted
Respond with the bare value in %.

Below, 10 compounds whose answers are already recorded.
{"columns": ["COMPOUND", "RESULT"],
 "data": [
  ["CC(=O)N[C@H]1[C@H]([C@H](O)[C@H](O)CO)OC(C(=O)O)=C[C@@H]1N=C(N)N", 19.9],
  ["COc1ccc2cccc(CCNC(C)=O)c2c1", -8.5],
  ["O=C(NCCCN1CCOCC1)c1ccc(Cl)cc1", 18.6],
  ["CN1CCC[C@@H]1Cc1c[nH]c2ccc(CCS(=O)(=O)c3ccccc3)cc12", 19.5],
  ["Cn1ccc2cc3c(cc21)CCN3C(=O)Nc1cccnc1", 12.7],
  ["O=C(O)CCc1nc2ccccc2[nH]1", 106],
  ["CCCCCCOC(=O)NC(=N)c1ccc(NCc2nc3cc(C(=O)N(CCC(=O)OCC)c4ccccn4)ccc3n2C)cc1", 155],
  ["O=C(OCCOCCO)c1ccccc1Nc1cccc(C(F)(F)F)c1", 54.2],
  ["C=CC(=O)Nc1cc2c(Nc3ccc(F)c(Cl)c3)ncnc2cc1OCCCN1CCOCC1", 130],
  ["CC1CCc2c(N3CCC(O)CC3)c(F)cc3c(=O)c(C(=O)O)cn1c23 (configuration not stated)", 37.2]
]}

Pending compound:
What viability decrease (inhibition) value was documented for this compound, `CCCC(CCC)C(=O)O` ?
-4.3

====

- ASSAY_METHOD_TEXT: ovarian cancer cell viability with rucaparib, profiling panel, oncology-focused library, rucaparib conditional (AID 1508598)
- TEST_CONTEXT: patient-derived ovarian cancer cells, CellTiter-Glo viability, 144 h; at 5 µM; OCI-C5x cells; without rucaparib
The source made the active and inactive calls.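 The calls were made as follows: active = normalized viability below 100% at a tested concentration; inactive = the rest.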
Would you mind answering with one of these outcomes? yes for active, no for inactive

Example entries and their recorded answers appear below.
{"columns": ["MOL", "CAT"],
 "data": [
  ["CCN(CC)CCNC(=O)c1c(C)[nH]c(/C=C2\\C(=O)Nc3ccc(F)cc32)c1C", "yes"],
  ["COc1nc(N)nc2c1ncn2[C@@H]1O[C@H](CO)[C@@H](O)[C@@H]1O", "yes"],
  ["CN1CC[C@H](c2c(O)cc(O)c3c(=O)cc(-c4ccccc4Cl)oc23)[C@H](O)C1", "yes"],
  ["C#Cc1cccc(Nc2ncnc3cc(OCCOC)c(OCCOC)cc23)c1", "yes"],
  ["Nc1nc(Cl)nc2c1ncn2[C@@H]1O[C@H](CO)[C@@H](O)[C@@H]1F", "yes"]
]}

Assay outcome for `O=C(NOCC1CC1)c1ccc(F)c(F)c1Nc1ccc(I)cc1Cl` : what was it?
no

====

- ASSAY_METHOD_TEXT: ovarian cancer cell viability with rucaparib, profiling panel, oncology-focused library, rucaparib conditional (AID 1508598)
- TEST_CONTEXT: patient-derived ovarian cancer cells, CellTiter-Glo viability, 144 h; at 0.0195 µM; OCI-C5x cells; with rucaparib 10 µM; stronger effect = lower value; 100% = cells with rucaparib alone
OUTCOME_MEASURE: viability (%)
Express your answer in %, writing the number without its unit.

Check out these entries, answers already filled in.
{"columns": ["COMPOUND", "viability [%]"],
 "data": [
  ["CC(C)C[C@H](NC(=O)[C@H](Cc1ccccc1)NC(=O)c1cnccn1)B(O)O", 38.9],
  ["COc1c(C)c2c(c(O)c1C/C=C(\\C)CCC(=O)OCCN1CCOCC1)C(=O)OC2", 115],
  ["CC(C)n1c(/C=C/[C@@H](O)C[C@@H](O)CC(=O)O)c(-c2ccc(F)cc2)c2ccccc21", 73.9],
  ["CN(N=O)C(=O)N[C@@H]1[C@@H](O)[C@H](O)[C@@H](CO)O[C@@H]1O", 111]
]}

Item under review: `CCCC(CCC)C(=O)O` . Reported viability?
119

What viability value was documented for this compound, `Nc1ncn([C@H]2C[C@H](O)[C@@H](CO)O2)c(=O)n1` ?
103

====

- ASSAY_METHOD_TEXT: sensitizers of A549 cells to miR-34 induction, primary screen, imaging, A549 dox-inducible miR-34, nuclei and caspase counts (AID 1347080)
- TEST_CONTEXT: A549 miR-34 inducible, Hoechst nuclei count, 48 h; measured here: relative caspase fold change +Dox/-Dox
# key: entry, value: fold change
API note: the answer field is a bare number with no unit suffix.

{"columns": ["COMPOUND", "fold change"],
 "data": [
  ["C=C1c2c(Cl)ccc(O)c2C(O)=C2C(=O)[C@]3(O)C(O)=C(C(N)=O)C(=O)[C@@H](N(C)C)[C@@H]3[C@@H](O)[C@H]12", 1.07],
  ["CCCn1cnc2c1c(=O)n(CCCCC(C)=O)c(=O)n2C", 0.994],
  ["COc1ccc2ccc(=O)oc2c1CC=C(C)C", 0.78],
  ["C[C@H]1O[C@@H](O[C@H]2[C@@H](O)C[C@H](O[C@H]3[C@@H](O)C[C@H](O[C@H]4CC[C@@]5(C)[C@H](CC[C@@H]6[C@@H]5C[C@@H](O)[C@]5(C)[C@@H](C7=CC(=O)OC7)CC[C@]65O)C4)O[C@@H]3C)O[C@@H]2C)C[C@H](O)[C@@H]1O", 2.27],
  ["CC1(C)SC2C(NC(=O)COc3ccccc3)C(=O)N2C1C(=O)O (stereo unspecified)", 1.37]
]}

Which fold change value belongs to `NCCCS(=O)(=O)O` ?
2.79

# fold change lookup, item `CC(C)c1c(C(=O)Nc2ccccc2)c(-c2ccccc2)c(-c2ccc(F)cc2)n1CC[C@@H](O)C[C@@H](O)CC(=O)O`
1.55

Quick check: fold change of `CC(C)(C)c1ccc(C(=O)CCCN2CCC(OC(c3ccccc3)c3ccccc3)CC2)cc1` ?
0.93

// returns reported fold change for input `CC1=C(/C=C/C(C)=C/C=C/C(C)=C/C=C/C=C(C)/C=C/C=C(C)/C=C/C2=C(C)CCCC2(C)C)C(C)(C)CCC1`
1.03
